Target: humaner Carboanhydrase II (Homo sapiens, UniProt P00918)
MEASURED_ATTRIBUTE: IC50 (µM)
// return numeric value only (unit: µM, not printed)

Fill in: IC50 of C[C@]12CC[C@@H]3c4ccc(OS(N)(=O)=O)cc4CC[C@H]3[C@@H]1CC[C@@H]2O [Estradiol-3-sulfamat] is ___
0.0216
